Value source: patent US20240366589A1

- Test system: phosphorus and calcium levels in the urine of rats
- EXPERIMENT_DESCRIPTION: Urinary excretion of phosphate and calcium in rats (16 h overnight urine)
- Type: in vivo, rat
- MEASUREMENT_CONTEXT: rats, oral gavage, dose 10 mg/kg, 16 h post-dose
Urine P % of control by entry:
# number only, unit % dropped from output

Some entries whose results are on file:
Look up and report measured Urine P % of control (phosphorus and calcium levels in the urine of rats) for the following compound: CN1Cc2c(Cl)cc(Cl)cc2[C@H](c2cccc(S(=O)(=O)NCCOCCOCCOCCNC(=O)c3ccc(-c4ccc(Cl)cc4)cc3)c2)C1
75

Specify the recorded Urine P % of control for O=C(NCCOCCOCCOCCNS(=O)(=O)c1ccc(O[C@H]2c3ccccc3C[C@@H]2N2CCCCC2)cc1)c1ccc(C(=O)NCCOCCOCCOCCNS(=O)(=O)c2ccc(O[C@H]3c4ccccc4C[C@@H]3N3CCCCC3)cc2)cc1 , system: phosphorus and calcium levels in the urine of rats.
98

Look up phosphorus and calcium levels in the urine of rats data: Urine P % of control of NC(N)=Nc1nc(-c2ccc(N3CCN(CCOCCOCCOCCNC(=O)NCCOCCOCCNC(=O)CN(CCN(CC(=O)O)CC(=O)NCCOCCOCCNC(=O)NCCOCCOCCOCCN4CCN(c5ccc(-c6nc(N=C(N)N)nc7ccc(Cl)cc67)cc5)CC4)CC(=O)O)CC3)cc2)c2cc(Cl)ccc2n1 , then report it.
112

Provide phosphorus and calcium levels in the urine of rats Urine P % of control reading for CCC(=O)NCCOCCOCCOCCNS(=O)(=O)c1cccc([C@@H]2CN(C)Cc3c(Cl)cc(Cl)cc32)c1 .
71

Write down measured Urine P % of control (phosphorus and calcium levels in the urine of rats) for this compound. CCC(=O)NC(CCC(=O)NCCOCCOCCOCCNS(=O)(=O)c1cccc([C@@H]2CN(C)Cc3c(Cl)cc(Cl)cc32)c1)(CCC(=O)NCCOCCOCCOCCNS(=O)(=O)c1cccc([C@@H]2CN(C)Cc3c(Cl)cc(Cl)cc32)c1)CCC(=O)NCCOCCOCCOCCNS(=O)(=O)c1cccc([C@@H]2CN(C)Cc3c(Cl)cc(Cl)cc32)c1
117

Report Urine P % of control from phosphorus and calcium levels in the urine of rats testing of CN1Cc2c(Cl)cc(Cl)cc2[C@H](c2cccc(S(=O)(=O)NCCOCCOCCNC(=O)CN(CC(=O)NCCOCCOCCNS(=O)(=O)c3cccc([C@@H]4CN(C)Cc5c(Cl)cc(Cl)cc54)c3)CC(=O)NCCOCCOCCNS(=O)(=O)c3cccc([C@@H]4CN(C)Cc5c(Cl)cc(Cl)cc54)c3)c2)C1
44

Retrieve Urine P % of control on phosphorus and calcium levels in the urine of rats; query O=C(NCCCCNC(=O)NCCOCCOCCOCCNS(=O)(=O)c1ccc(O[C@H]2c3ccccc3C[C@@H]2N2CCCCC2)cc1)NCCOCCOCCOCCNS(=O)(=O)c1ccc(O[C@H]2c3ccccc3C[C@@H]2N2CCCCC2)cc1 [compound 72]
43

Please report the measured Urine P % of control for C/C(=C\c1cc(F)c(Oc2ccc(S(=O)(=O)NCCOCCOCCOCCN)cc2)c(F)c1)C(=O)N=C(N)N tested on phosphorus and calcium levels in the urine of rats.
106

// switching to the query compound
Please report Urine P % of control with phosphorus and calcium levels in the urine of rats for item O=C(NCCCCNC(=O)NCCOCCOCCNS(=O)(=O)c1ccc(O[C@H]2c3ccccc3C[C@@H]2N2CCCC2)cc1)NCCOCCOCCNS(=O)(=O)c1ccc(O[C@H]2c3ccccc3C[C@@H]2N2CCCC2)cc1 .
52

---

- Test system: absorption of sodium from the intestinal lumen
- EXPERIMENT_DESCRIPTION: Inhibition of intestinal sodium absorption: urinary sodium (uNa) 16 h after single oral dose in rats
- Assay type: in vivo, rat
- MEASUREMENT_CONTEXT: oral gavage, dose 10 mg/kg, 16 h post-dose
Category key, based on recorded Urine Na % of control: LOW (below 40%), MEDIUM (40% to below 90%), HIGH (90% or more)

Field: example entries. Status: answers known.
Field: class (Urine Na % of control) — entry: O=C(NCCCCNC(=O)NCCOCCOCCNS(=O)(=O)c1ccc(O[C@H]2c3ccccc3C[C@@H]2N2CCCCC2)cc1)NCCOCCOCCNS(=O)(=O)c1ccc(O[C@H]2c3ccccc3C[C@@H]2N2CCCCC2)cc1 (racemic) [compound 47]
MEDIUM

Category lookup for the compound CN1Cc2c(Cl)cc(Cl)cc2[C@H](c2cccc(S(=O)(=O)NCCOCCOCCNC(=O)NCCN(CCNC(=O)NCCOCCOCCNS(=O)(=O)c3cccc([C@@H]4CN(C)Cc5c(Cl)cc(Cl)cc54)c3)C(=O)CCOCCOCCOCCOCCOCCOCCOCCOCCOCCC(=O)N(CCNC(=O)NCCOCCOCCNS(=O)(=O)c3cccc([C@@H]4CN(C)Cc5c(Cl)cc(Cl)cc54)c3)CCNC(=O)NCCOCCOCCNS(=O)(=O)c3cccc([C@@H]4CN(C)Cc5c(Cl)cc(Cl)cc54)c3)c2)C1
LOW

Which of the defined bands does the recorded Urine Na % of control of NC(N)=Nc1nc(-c2cccc(N3CCN(CCOCCOCCNC(=O)NCCOCCOCCNC(=O)NCCCCNC(=O)NCCOCCOCCNC(=O)NCCOCCOCCN4CCN(c5cccc(-c6nc(N=C(N)N)nc7ccc(Cl)cc67)c5)CC4)CC3)c2)c2cc(Cl)ccc2n1 sit within?
MEDIUM

Lab log: CN(C)[C@H]1Cc2ccc(F)cc2[C@@H]1Oc1ccc(S(=O)(=O)NCCOCCOCCNC(=O)NCCCCNC(=O)NCCOCCOCCNS(=O)(=O)c2ccc(O[C@H]3c4cc(F)ccc4C[C@@H]3N(C)C)cc2)cc1 — assign Urine Na % of control category
HIGH

Continuing:
Sort CN1Cc2c(Cl)cc(Cl)cc2[C@H](c2cccc(S(=O)(=O)NCCOCCOCCNC(=O)NCCN(CCNC(=O)NCCOCCOCCNS(=O)(=O)c3cccc([C@@H]4CN(C)Cc5c(Cl)cc(Cl)cc54)c3)CCNC(=O)NCCOCCOCCNS(=O)(=O)c3cccc([C@@H]4CN(C)Cc5c(Cl)cc(Cl)cc54)c3)c2)C1 into one of the categories.
LOW

Textbook exercise: identify the category of the compound given here, C/C(=C\c1cc(F)c(Oc2ccc(S(=O)(=O)NCCOCCOCCOCCNC(=O)N3CCN(C(=O)NCCOCCOCCOCCNS(=O)(=O)c4ccc(Oc5c(F)cc(/C=C(\C)C(=O)N=C(N)N)cc5F)cc4)CC3)cc2)c(F)c1)C(=O)N=C(N)N , according to its measured value.
HIGH

Note: place this compound into its band. Item: N=C(N)Nc1nc(-c2ccc(N3CCN(CCOCCOCCOCCNC(=O)NCCOCCOCCNC(=O)NCCOCCOCCOCCN4CCN(c5ccc(-c6nc(NC(=N)N)nc7ccc(Cl)cc67)cc5)CC4)CC3)cc2)c2cc(Cl)ccc2n1
MEDIUM

For this compound, which bin applies? O=C(NCCCCNC(=O)NCCOCCOCCNS(=O)(=O)c1ccc(O[C@H]2c3cc(F)ccc3C[C@@H]2N2CCCCC2)cc1)NCCOCCOCCNS(=O)(=O)c1ccc(O[C@H]2c3cc(F)ccc3C[C@@H]2N2CCCCC2)cc1
HIGH

Form: Item = CN1Cc2c(Cl)cc(Cl)cc2[C@H](c2cccc(S(=O)(=O)NCCOCCOCCNC(=O)NCCCN(CCCNC(=O)NCCOCCOCCNS(=O)(=O)c3cccc([C@@H]4CN(C)Cc5c(Cl)cc(Cl)cc54)c3)CCCNC(=O)NCCOCCOCCNS(=O)(=O)c3cccc([C@@H]4CN(C)Cc5c(Cl)cc(Cl)cc54)c3)c2)C1 ; Class = ?
LOW

---

- SYSTEM_NAME: Rat NHE3 (Rattus norvegicus)
- Construct: expressed in transfected cells; host or cells: Opossum kidney (OK) cells (ATCC), electroporation
- Sequence (P26433 29-831): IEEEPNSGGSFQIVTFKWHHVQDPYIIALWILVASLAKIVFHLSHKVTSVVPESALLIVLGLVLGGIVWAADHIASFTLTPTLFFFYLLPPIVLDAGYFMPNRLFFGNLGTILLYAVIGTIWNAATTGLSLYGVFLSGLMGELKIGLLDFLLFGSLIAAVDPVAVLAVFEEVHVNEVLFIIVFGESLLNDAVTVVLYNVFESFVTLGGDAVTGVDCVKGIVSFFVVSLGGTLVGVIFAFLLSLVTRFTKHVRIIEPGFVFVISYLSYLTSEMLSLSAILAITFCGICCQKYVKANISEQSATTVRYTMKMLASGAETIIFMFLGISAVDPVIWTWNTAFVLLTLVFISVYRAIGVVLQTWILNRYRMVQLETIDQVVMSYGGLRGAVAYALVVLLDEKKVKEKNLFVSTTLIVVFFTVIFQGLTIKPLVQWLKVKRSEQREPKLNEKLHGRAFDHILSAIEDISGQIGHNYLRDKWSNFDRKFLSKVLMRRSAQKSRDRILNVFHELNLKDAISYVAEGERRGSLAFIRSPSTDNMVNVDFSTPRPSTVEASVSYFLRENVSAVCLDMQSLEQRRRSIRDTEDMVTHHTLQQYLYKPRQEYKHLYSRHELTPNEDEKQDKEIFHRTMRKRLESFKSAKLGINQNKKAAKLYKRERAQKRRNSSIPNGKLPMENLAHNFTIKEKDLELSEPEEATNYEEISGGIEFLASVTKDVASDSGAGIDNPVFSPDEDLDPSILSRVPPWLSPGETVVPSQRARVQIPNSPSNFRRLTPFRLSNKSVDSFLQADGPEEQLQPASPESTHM
- EXPERIMENT_DESCRIPTION: Cell-based NHE3 activity under prompt conditions (OK cells, BCECF pH recovery), rat NHE3
- MEASUREMENT_CONTEXT: prompt conditions
# Lookup of reported Prompt Rat NHE3 pIC50 keyed by entry
Keep the answer to the number alone.

Examples from the recorded data:
Assign Prompt Rat NHE3 pIC50 to the following record: CN1Cc2c(Cl)cc(Cl)cc2[C@H](c2cccc(S(=O)(=O)NCCOCCOCCNC(=O)N(C)CCCN(CCCN(C)C(=O)NCCOCCOCCNS(=O)(=O)c3cccc([C@@H]4CN(C)Cc5c(Cl)cc(Cl)cc54)c3)CCCN(C)C(=O)NCCOCCOCCNS(=O)(=O)c3cccc([C@@H]4CN(C)Cc5c(Cl)cc(Cl)cc54)c3)c2)C1
6.90

Tell me Prompt Rat NHE3 pIC50 reported for CN1Cc2c(Cl)cc(Cl)cc2[C@H](c2cccc(S(=O)(=O)NCCOCCOCCNC(=O)NCCC[N+](C)(CCCNC(=O)NCCOCCOCCNS(=O)(=O)c3cccc([C@@H]4CN(C)Cc5c(Cl)cc(Cl)cc54)c3)CCCNC(=O)NCCOCCOCCNS(=O)(=O)c3cccc([C@@H]4CN(C)Cc5c(Cl)cc(Cl)cc54)c3)c2)C1
7.40

# return recorded Prompt Rat NHE3 pIC50 for input N=C(N)Nc1nc(-c2ccc(OCCOCCOCCOCCN)cc2)c2cc(Cl)ccc2n1
7.50

New cases:
Give the reported value of Prompt Rat NHE3 pIC50 for this record: O=C(CCOCCOCCOCCOCCOCCC(=O)NCCOCCOCCNS(=O)(=O)c1ccc(OC2c3ccccc3CC2N2CCCCC2)cc1)NCCOCCOCCNS(=O)(=O)c1ccc(OC2c3ccccc3CC2N2CCCCC2)cc1 (racemic)
7.30
